- ASSAY_SYSTEM: GTPase KRas (G12D) and Son of Sevenless Homolog 1 (SOS) (Homo sapiens, UniProt P01116, G12D)
- Sequence (P01116 whole entry G12D): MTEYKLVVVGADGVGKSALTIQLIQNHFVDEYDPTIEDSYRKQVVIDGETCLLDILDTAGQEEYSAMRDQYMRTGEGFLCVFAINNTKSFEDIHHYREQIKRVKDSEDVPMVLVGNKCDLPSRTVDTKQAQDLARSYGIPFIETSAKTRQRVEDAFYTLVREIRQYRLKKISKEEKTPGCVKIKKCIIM
- Sequence (Q07889 whole entry, further chain): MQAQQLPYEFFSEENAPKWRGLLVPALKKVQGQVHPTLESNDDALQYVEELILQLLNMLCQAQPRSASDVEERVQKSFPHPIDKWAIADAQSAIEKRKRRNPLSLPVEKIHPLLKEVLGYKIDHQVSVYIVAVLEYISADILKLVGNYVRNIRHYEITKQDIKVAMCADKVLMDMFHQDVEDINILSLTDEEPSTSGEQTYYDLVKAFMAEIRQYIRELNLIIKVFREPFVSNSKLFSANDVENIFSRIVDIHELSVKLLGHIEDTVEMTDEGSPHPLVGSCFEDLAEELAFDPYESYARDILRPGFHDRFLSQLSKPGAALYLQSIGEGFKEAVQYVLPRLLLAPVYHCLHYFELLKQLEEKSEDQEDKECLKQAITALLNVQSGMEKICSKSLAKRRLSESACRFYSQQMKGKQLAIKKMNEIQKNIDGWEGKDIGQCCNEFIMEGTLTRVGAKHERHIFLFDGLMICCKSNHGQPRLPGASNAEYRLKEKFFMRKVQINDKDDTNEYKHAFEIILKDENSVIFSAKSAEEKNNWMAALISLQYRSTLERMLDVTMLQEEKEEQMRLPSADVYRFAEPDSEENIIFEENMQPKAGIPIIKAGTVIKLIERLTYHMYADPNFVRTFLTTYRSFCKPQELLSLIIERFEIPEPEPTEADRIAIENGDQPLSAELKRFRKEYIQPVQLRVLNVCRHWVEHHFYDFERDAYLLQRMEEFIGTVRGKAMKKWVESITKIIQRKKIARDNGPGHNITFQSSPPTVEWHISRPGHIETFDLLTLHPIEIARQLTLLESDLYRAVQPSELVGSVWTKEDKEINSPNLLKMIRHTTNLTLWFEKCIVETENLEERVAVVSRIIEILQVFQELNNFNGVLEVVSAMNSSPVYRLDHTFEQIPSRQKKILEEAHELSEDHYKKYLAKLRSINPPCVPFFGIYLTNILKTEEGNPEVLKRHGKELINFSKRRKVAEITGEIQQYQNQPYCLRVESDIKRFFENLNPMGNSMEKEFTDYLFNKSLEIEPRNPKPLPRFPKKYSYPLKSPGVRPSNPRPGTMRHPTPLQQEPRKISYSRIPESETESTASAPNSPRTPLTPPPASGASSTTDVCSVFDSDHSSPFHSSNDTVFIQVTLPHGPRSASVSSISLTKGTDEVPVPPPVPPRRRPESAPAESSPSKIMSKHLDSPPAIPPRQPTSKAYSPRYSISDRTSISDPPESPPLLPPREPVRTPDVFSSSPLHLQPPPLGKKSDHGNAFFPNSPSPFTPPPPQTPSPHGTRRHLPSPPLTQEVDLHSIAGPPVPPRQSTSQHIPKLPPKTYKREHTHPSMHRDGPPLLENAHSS
- EXPERIMENTAL_DETAILS: AlphaScreen Assay
Bridge positions count the residues as written; N and C are the ends. Square brackets hold non-standard residues; d marks the D form. Peptide text beside a SMILES is read from it. * marks the point of attachment. hPhe(3-F,4-CF3) = N[C@@H](CCc1ccc(C(F)(F)F)c(F)c1)C(=O)O; NMeCha = CN[C@@H](CC1CCCCC1)C(=O)O; cisHyp = O=C(O)[C@@H]1C[C@H](O)CN1; Hyp = O=C(O)[C@@H]1C[C@@H](O)CN1; NMeD = CN[C@@H](CC(=O)O)C(=O)O; Benzyl(4-Cl) = Clc1ccc(C*)cc1; NMeL = CN[C@@H](CC(C)C)C(=O)O; Piperidide = C1CCN(*)CC1; Ac5c = NC1(C(=O)O)CCCC1; X94 = COc1cccc(C*)c1; Sar = CNCC(=O)O
ATTRIBUTE_MEASURED: IC50

CC[C@H](C)[C@@H]1NC(=O)[C@H](CC(C)C)N(C)C(=O)C[C@@H](C(=O)N2CCCCC2)N(C)C(=O)[C@H](CC(C)C)N(C)C(=O)C2(CCCC2)NC(=O)[C@@H]2C[C@H](OCc3cccc(OC)c3)CN2C(=O)[C@H](CCc2ccc(C(F)(F)F)c(F)c2)NC(=O)CN(C)C(=O)[C@H](CC2CCCCC2)N(C)C(=O)CN(C)C(=O)CN(C)C1=O [US20240148821, Compound 2136] ([NMeL]I[Sar][Sar][NMeCha][Sar][hPhe(3-F,4-CF3)][cisHyp](X94)[Ac5c][NMeL][NMeD]-Piperidide; lactam N-11)    39 nM

Switching to the query record.
Input: # get_value(readout='IC50', item= CC[C@H](C)[C@@H]1NC(=O)[C@H](CC(C)C)N(C)C(=O)C[C@@H](C(=O)N2CCCCC2)N(C)C(=O)[C@H](CC(C)C)N(C)C(=O)C2(CCCC2)NC(=O)[C@@H]2C[C@@H](OCc3ccc(Cl)cc3)CN2C(=O)[C@H](CCc2ccc(C(F)(F)F)c(F)c2)NC(=O)CN(C)C(=O)[C@H](CC2CCCCC2)N(C)C(=O)CN(C)C(=O)CN(C)C1=O [US20240148821, Compound 2133] ([NMeL]I[Sar][Sar][NMeCha][Sar][hPhe(3-F,4-CF3)][Hyp](Benzyl(4-Cl))[Ac5c][NMeL][NMeD]-Piperidide; lactam N-11) )
Output: 12 nM

###

- ASSAY_SYSTEM: GTPase KRas (G12D) and Son of Sevenless Homolog 1 (SOS) (Homo sapiens, UniProt P01116, G12D)
- EXPERIMENTAL_DETAILS: AlphaScreen Assay
Numbered stars: 1 amine (or outer) side, 2 acyl side, 3 side chain; on linkers, the order of the positions; unused ones are H or OH. Bridge positions count the residues as written; N and C are the ends. Square brackets hold non-standard residues; d marks the D form. Peptide text beside a SMILES is read from it. * marks the point of attachment. hPhe(3-Cl-4-CF3) = N[C@@H](CCc1ccc(C(F)(F)F)c(Cl)c1)C(=O)O; X31 = O=C([C@@H]1C[C@@H](n2ccnn2)CN1[*:1])[*:2]; NMeAla(cPent) = CN[C@@H](CC1CCCC1)C(=O)O; NMeD = CN[C@@H](CC(=O)O)C(=O)O; NMeL = CN[C@@H](CC(C)C)C(=O)O; NMeV = CN[C@H](C(=O)O)C(C)C; Piperidide = C1CCN(*)CC1; Ac5c = NC1(C(=O)O)CCCC1; Sar = CNCC(=O)O
ATTRIBUTE_MEASURED: pIC50
# pIC50 = -log10(concentration in molar units)

Input: # get_value(readout='pIC50', item= CC[C@H](C)[C@@H]1NC(=O)[C@H](CC(C)C)N(C)C(=O)C[C@@H](C(=O)N2CCCCC2)N(C)C(=O)[C@H](C(C)C)N(C)C(=O)C2(CCCC2)NC(=O)[C@@H]2C[C@@H](n3ccnn3)CN2C(=O)[C@H](CCc2ccc(C(F)(F)F)c(Cl)c2)NC(=O)CN(C)C(=O)[C@H](CC2CCCC2)N(C)C(=O)CN(C)C(=O)CN(C)C1=O [US20240148821, Compound 2113] ([NMeL]I[Sar][Sar][NMeAla(cPent)][Sar][hPhe(3-Cl-4-CF3)][X31][Ac5c][NMeV][NMeD]-Piperidide; lactam N-11) )
Output: 9.33
